Some variants, each annotated with its measured exon inclusion enrichment index.
B1: mRNA-splicing (parent)
chain: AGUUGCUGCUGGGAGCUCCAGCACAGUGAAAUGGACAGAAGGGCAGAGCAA

Variants of: B1
measurement.description: exon inclusion enrichment index; higher = more inclusion; WT1 exon 5 minigene, HEK293
Number only, no unit.

variant_name="G5U G8U C9U A37G G38U" property="exon inclusion enrichment index" measured_result=0.0298
variant_name="G2A U3C G5C C6U G8C C9U U10C" property="exon inclusion enrichment index" measured_result=2.03

GET /values?readout=exon inclusion enrichment index&item= G5A U7C G8A U10C G21C C22U
2.19

Which value of exon inclusion enrichment index has been reported for C6A U7A C9A U10A A45U G46C in the records?
0.614

Returns the measured exon inclusion enrichment index for the input variant. Input: G5A C6U U7A G8U C9A C22A A23U
0.0397

Would you mind telling me what exon inclusion enrichment index value was observed for G5A C6U U7A G8U C9U U10A ?
0.00135

Query (variant): G5A C6U U7A C9G ; field requested: exon inclusion enrichment index
0.0115

Which exon inclusion enrichment index reading was recorded for the variant G5C C6G U7C U10C A40G G41U ?
3.4

Hello, the source for this data is the RNAGym collection of RNA variant scans (doi:10.1101/gr.219683.116), in case you need it.
